- Test system: C33A
- MEASUREMENT_DESCRIPTION: Primary qHTS to identify gynecologic anti-cancer compounds using libraries of approved drugs and bioactive compounds (AID 1345084); note: nearly all actives have a fitted effect of over 55% in size
- EXPERIMENTAL_CONDITIONS: Gynecologic cancer cell panel viability, ATPlite luminescence, 48 h; series mostly up to 57.5 µM
Records with an inconclusive call do not appear. The source made the active and inactive calls. Calls come from the whole dose curve; as a rule, active = well fitted cell-killing curve with a large enough effect; inconclusive = small, poorly fitted or top-dose-only effect, or effect the other way; inactive = flat fitted curve, though single readings scatter.
Outcomes: active, inactive

# MOLECULE, LABEL_CLASS
data = [
    ("CC(=O)Nc1ccc(O)cc1", "inactive"),
    ("Cc1ccc(S(=O)(=O)NC(=O)NN2CC3CCCC3C2)cc1 (stereo not drawn)", "inactive"),
    ("COc1cc(Nc2c(C#N)cnc3cc(OCCCN4CCN(C)CC4)c(OC)cc23)c(Cl)cc1Cl", "active"),
    ("Cc1cc(C2CCCCC2)n(O)c(=O)c1", "active"),
    ("CN(C)C(=O)[C@H](O)[C@H](Cc1ccccc1)NC(=O)c1cc2cc(Cl)ccc2[nH]1", "inactive"),
    ("CN1C(C(=O)Nc2ccccn2)=C(O)c2sccc2S1(=O)=O", "inactive"),
    ("COc1cc2nc(N3CCN(C(=O)C4CCCO4)CC3)nc(N)c2cc1OC (stereo not drawn)", "inactive"),
    ("CNC[C@H](O)c1ccc(O)c(O)c1", "inactive"),
    ("CCC1=C(C)CN(C(=O)NCCc2ccc(S(=O)(=O)NC(=O)NC3CCC(C)CC3)cc2)C1=O (stereo not drawn)", "inactive"),
    ("O=C(NCC1CCCCN1)c1cc(OCC(F)(F)F)ccc1OCC(F)(F)F (stereo not drawn)", "inactive"),
    ("Cc1cc(=O)c2c(O)c3c(O)cc(=O)c4c3c3c(cc(O)c1c23)C(C)(C)C=4O", "active"),
    ("NC(=O)Cc1cccc(C(=O)c2ccccc2)c1N", "inactive"),
    ("C=C(c1ccc(C(=O)O)cc1)c1cc2c(cc1C)C(C)(C)CCC2(C)C", "inactive"),
    ("Nc1ncn([C@H]2C[C@H](O)[C@@H](CO)O2)c(=O)n1", "inactive"),
    ("Cc1ccc(NC(=O)c2ccc(CN3CCN(C)CC3)cc2)cc1Nc1nccc(-c2cccnc2)n1", "inactive"),
    ("CN(C)c1ccc2nc3ccc(=[N+](C)C)cc-3sc2c1", "active"),
    ("CC1=C(C)C(=O)C(C(CCCCCC(=O)O)c2ccccc2)=C(C)C1=O (stereo not drawn)", "inactive"),
    ("Cc1ccc(C)c(OCCCC(C)(C)C(=O)O)c1", "inactive"),
    ("CCN(CC)CCOc1ccc(Cc2ccccc2)cc1", "inactive"),
    ("O=C(NOCC1CC1)c1ccc(F)c(F)c1Nc1ccc(I)cc1Cl", "inactive"),
    ("N=C(N)c1ccc2cc(OC(=O)c3ccc(N=C(N)N)cc3)ccc2c1", "inactive"),
    ("CCCc1cc(=O)[nH]c(=S)[nH]1", "inactive"),
    ("Cc1cc(=O)oc2cc(O)ccc12", "inactive"),
]

* * *

- Test system: PC49
- MEASUREMENT_DESCRIPTION: qHTS profiling for inhibitors of Plasmodium falciparum proliferation (AID 504749); note: nearly all actives have a fitted effect of over 60% in size
- EXPERIMENTAL_CONDITIONS: P. falciparum in erythrocytes, SYBR Green DNA, 72 h; series mostly up to 28.7 µM
Results filed as inconclusive are left out. Active and inactive are the calls of the source. Calls follow the shape of the dose curve; as a rule, active = well fitted inhibition curve with a large enough effect; inconclusive = small, poorly fitted or top-dose-only effect; inactive = flat fitted curve, though single readings scatter. Peptide text beside a SMILES is read from it.
Outcomes: 1 (active), -1 (inactive)

# COMPOUND, TEST_TARGET, LABEL_CLASS
measured = [
    ("CCCCC(CC)COC(=O)C(C#N)=C(c1ccccc1)c1ccccc1 (stereo unspecified)", "PC49", -1),
    ("CNC[C@H](O)c1ccc(O)c(O)c1", "PC49", -1),
    ("Cc1ccc(C)c(OCCCC(C)(C)C(=O)O)c1", "PC49", -1),
    ("CCCCc1ccc2nc(NC(=O)OC)[nH]c2c1", "PC49", -1),
    ("O=C(O)c1cn(-c2ccc(F)cc2)c2cc(N3CCNCC3)c(F)cc2c1=O", "PC49", -1),
    ("CC1(C)CCC(C)(C)c2cc(NC(=O)c3ccc(C(=O)O)cc3)ccc21", "PC49", -1),
    ("COc1cc2c(cc1OC)C1CC(=O)C(CC(C)C)CN1CC2 (stereo unspecified)", "PC49", -1),
    ("O=C(CS(=O)Cc1ccco1)NCC=CCOc1cc(CN2CCCCC2)ccn1 (stereo unspecified)", "PC49", -1),
    ("CN1C(C(=O)Nc2ccccn2)=C(O)c2sccc2S1(=O)=O", "PC49", -1),
    ("CCN(CCO)CCCC(C)Nc1ccnc2cc(Cl)ccc12 (stereo unspecified)", "PC49", -1),
    ("CN(C)CCc1c[nH]c2ccc(Cn3cncn3)cc12", "PC49", -1),
    ("Cn1c(NCCN(CCO)CCCc2ccc([N+](=O)[O-])cc2)cc(=O)n(C)c1=O", "PC49", -1),
    ("O=c1oc2cc(O)ccc2s1", "PC49", -1),
    ("O=C(O)c1cccnc1Nc1cccc(C(F)(F)F)c1", "PC49", -1),
    ("CCC1=C(C)CN(C(=O)NCCc2ccc(S(=O)(=O)NC(=O)NC3CCC(C)CC3)cc2)C1=O (stereo unspecified)", "PC49", -1),
    ("NNc1nncc2ccccc12", "PC49", -1),
    ("CCCCCCCCCCCCCCCCCCCCCCO", "PC49", -1),
    ("O=C(O)c1cccc(-c2noc(-c3ccccc3F)n2)c1", "PC49", -1),
    ("Nc1cccc2c1CN(C1CCC(=O)NC1=O)C2=O (stereo unspecified)", "PC49", -1),
    ("Cc1cc2c(s1)Nc1ccccc1N=C2N1CCN(C)CC1", "PC49", -1),
    ("CC(C)(S)[C@@H](N)C(=O)O", "PC49", -1),
    ("CNC[C@@H](O)[C@@H](O)[C@H](O)[C@H](O)CO", "PC49", -1),
    ("Cc1ncc([N+](=O)[O-])n1CC(C)O (stereo unspecified)", "PC49", -1),
    ("CN1CCC(=C2c3ccccc3CCc3sccc32)CC1", "PC49", 1),
    ("Cc1c(OCC(F)(F)F)ccnc1CS(=O)c1nc2ccccc2[nH]1 (stereo unspecified)", "PC49", -1),
    ("Cc1cccc(C)c1OCC(=O)N[C@@H](Cc1ccccc1)[C@@H](O)C[C@H](Cc1ccccc1)NC(=O)[C@H](C(C)C)N1CCCNC1=O", "PC49", 1),
    ("COC(=O)[C@H](Cc1ccccc1)NC(=O)[C@@H](N)CC(=O)O (H-Asp-Phe-OMe)", "PC49", -1),
    ("CN(C)c1ccc2nc3ccc(=[N+](C)C)cc-3sc2c1", "PC49", -1),
    ("CN(c1nccc(=O)[nH]1)C1CCN(c2nc3ccccc3n2Cc2ccc(F)cc2)CC1", "PC49", -1),
    ("N[C@@H](Cc1cc(I)c(Oc2cc(I)c(O)c(I)c2)c(I)c1)C(=O)O", "PC49", -1),
    ("Nc1nc(Cl)nc2c1ncn2[C@H]1C[C@H](O)[C@@H](CO)O1", "PC49", -1),
    ("CCOc1cc(CC(=O)N[C@@H](CC(C)C)c2ccccc2N2CCCCC2)ccc1C(=O)O", "PC49", -1),
    ("Cc1cc2cc3c(C)cc(=O)oc3c(C)c2o1", "PC49", -1),
    ("O=C1c2ccccc2-c2n[nH]c3cccc1c23", "PC49", -1),
    ("C[C@]12CCC(=O)C=C1CC[C@@H]1[C@H]2[C@@H](O)C[C@@]2(C)[C@H]1CC[C@]2(O)C(=O)CO", "PC49", -1),
    ("Cc1cc(=O)c2c(O)c3c(O)cc(=O)c4c3c3c(cc(O)c1c23)C(C)(C)C=4O", "PC49", 1),
    ("CC(C)c1ccc2oc3nc(N)c(C(=O)O)cc3c(=O)c2c1", "PC49", -1),
    ("Cc1cc(C2CCCCC2)n(O)c(=O)c1", "PC49", -1),
    ("CC(S)C(=O)NCC(=O)O (stereo unspecified)", "PC49", -1),
    ("CCCOc1ccc2nc(NC(=O)OC)[nH]c2c1", "PC49", -1),
    ("O=C(NC(Cc1cc(=O)[nH]c2ccccc12)C(=O)O)c1ccc(Cl)cc1 (stereo unspecified)", "PC49", -1),
]

* * *

- MEASUREMENT_DESCRIPTION: Quantitative High-Throughput drug screen in 47 multiple myeloma cell lines against the NCATS MIPE library collection: KMS34_JCRB cell viability assay (AID 1918985); note: nearly all actives have a fitted effect of over 40% in size
- EXPERIMENTAL_CONDITIONS: KMS34 myeloma viability, CellTiter-Glo ATP luminescence, 48 h; series mostly up to 45.8 µM
Inconclusive results are not listed. Active and inactive are the calls of the source. The call rests on the fitted dose curve; in most records, active means well fitted cell-killing curve with a large enough effect; inconclusive means small, poorly fitted or top-dose-only effect, or effect the other way; inactive means no such curve, though single readings can be large or run the other way.
Possible outcomes: True = active, False = inactive

# COMPOUND, LABEL_CLASS
rows = [
    ("CC(=O)N1CCN(c2ccc(OC[C@H]3CO[C@](Cn4ccnc4)(c4ccc(Cl)cc4Cl)O3)cc2)CC1", "True"),
    ("CCN(CCO)CCCC(C)Nc1ccnc2cc(Cl)ccc12 (stereo not drawn)", "False"),
    ("C[C@H](Cn1cnc2c(N)ncnc21)OCP(=O)(O)O", "False"),
]
